molecular target: Grb2 SH2 (UniProt P62993); test: SH2 binding enrichment of the phosphorylated peptide, bacterial display (enrichment ratio); higher = better substrate or ligand; peptides without Tyr show the background
quantity_kind: SH2 binding enrichment

Consider the following illustrative entries.
[[record]]
polymer_sequence = "HPFHVYPQPGM [BAG3_Y114]"
measured_on = "Grb2 SH2 (UniProt P62993)"
endpoint_value = 1.05

[[record]]
polymer_sequence = "FRARAYSFRGP [CHGA_Y381_G382S]"
measured_on = "Grb2 SH2 (UniProt P62993)"
endpoint_value = 0.597

[[record]]
polymer_sequence = "HNQDDYSFPSR [LDLR_Y845_G844D_YF]"
measured_on = "Grb2 SH2 (UniProt P62993)"
endpoint_value = 0.723

[[record]]
polymer_sequence = "EEQKRYFNAMK [SCN5A_Y1494_K1493R_YF]"
measured_on = "Grb2 SH2 (UniProt P62993)"
endpoint_value = 1.04

[[record]]
polymer_sequence = "LEVETYRRLLD [KRT12_Y429_I426V]"
measured_on = "Grb2 SH2 (UniProt P62993)"
endpoint_value = 0.843


[P] SNYRAYATEPH [TNNI3_Y29]
[Q] GSPPPYRRRKR [MBD1_Y403]
# input Would you let me know which has the greater SH2 binding enrichment value, P or Q ? Indicate which entry you chose by stating its label.
# output P

[I] GHPYAYDWISI [BEST1_Y227_L224P]
[II] DYDHSYYFIAT [ESD_Y262_G257D]
# input # min-compare on SH2 binding enrichment between I and II Your choice should be expressed through its label.
# output II
(II: 0.684, I: 1.1)

[A] FFSSEYHCVGG [CTSC_Y345_Y347C_YF]
[B] CIILLYIFLKN [STXBP1_Y411_R406C]
# input Please indicate which has the smaller reported SH2 binding enrichment: A , or B . To answer, give the label that identifies your chosen option.
# output A

----------
phosphorylation enrichment for assorted sequences
biological target: Fes (UniProt P07332); test: phosphorylation enrichment, bacterial display (enrichment ratio); higher = better substrate or ligand; peptides without Tyr show the background
Sequence (P07332 whole entry, looked up): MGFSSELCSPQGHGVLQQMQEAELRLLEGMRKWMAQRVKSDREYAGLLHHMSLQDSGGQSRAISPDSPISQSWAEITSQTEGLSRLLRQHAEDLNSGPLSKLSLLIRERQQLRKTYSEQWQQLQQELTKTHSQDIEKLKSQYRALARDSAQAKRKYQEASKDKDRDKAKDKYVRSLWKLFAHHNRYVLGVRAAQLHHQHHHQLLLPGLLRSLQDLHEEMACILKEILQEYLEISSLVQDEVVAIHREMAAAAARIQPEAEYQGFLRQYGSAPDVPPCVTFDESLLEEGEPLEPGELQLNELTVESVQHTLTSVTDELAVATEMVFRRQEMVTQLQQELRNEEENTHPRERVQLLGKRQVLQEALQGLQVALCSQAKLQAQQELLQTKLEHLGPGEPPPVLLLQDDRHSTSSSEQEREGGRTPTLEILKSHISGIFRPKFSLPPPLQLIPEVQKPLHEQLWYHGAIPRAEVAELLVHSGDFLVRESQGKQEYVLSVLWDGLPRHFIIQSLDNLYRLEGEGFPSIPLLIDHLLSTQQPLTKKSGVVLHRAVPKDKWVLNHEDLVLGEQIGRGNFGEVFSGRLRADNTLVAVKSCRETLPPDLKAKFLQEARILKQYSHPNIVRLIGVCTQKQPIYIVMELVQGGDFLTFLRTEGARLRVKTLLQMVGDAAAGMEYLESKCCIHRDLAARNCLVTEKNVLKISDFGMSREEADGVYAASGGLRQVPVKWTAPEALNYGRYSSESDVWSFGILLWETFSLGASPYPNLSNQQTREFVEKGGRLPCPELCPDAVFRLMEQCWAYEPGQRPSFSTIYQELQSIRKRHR
# output: bare number, no unit

# count of solved cases: 4
[[record]]
polymer_sequence = "WNRDKYAATTT [TRIM39_Y439_G436R]"
endpoint_value = 0.59

[[record]]
polymer_sequence = "IRCQGYSHRIL [MYO3B_Y993_R990C]"
endpoint_value = 0.664

[[record]]
polymer_sequence = "RFLERYIFNRE [HLA-DPB1_Y57_YF]"
endpoint_value = 0.914

[[record]]
polymer_sequence = "KKHFSYAWPFF [BRDT_Y291_YF]"
endpoint_value = 1.13


# input Output measured phosphorylation enrichment for this item: HNLFSYPTKHE [MYO3A_Y1396_YF]
# output 0.989

# input Please give measured phosphorylation enrichment of the following entry: FFDANCDGKEF [MAPRE2_Y162_Y162C_YF]
# output 1.27

# input Item HILRVYSGVLP [PCNX4_Y999_G1000S] : provide phosphorylation enrichment
# output 1.22

# input Tell me its phosphorylation enrichment given VEFAKYGSLRG [RET_Y809_YF] as the entry.
# output 0.664

# input Supply reported phosphorylation enrichment belonging to this sequence: KRAIGYFSATS [FAM120A_Y327_YF]
# output 0.612

# input Tell me measured phosphorylation enrichment for KIIRRYVSSEG [ANK2_Y3907] please.
# output 0.479

----------
target: Grb2 SH2 (UniProt P62993); assay: SH2 binding enrichment of the phosphorylated peptide, bacterial display (enrichment ratio); higher = better substrate or ligand; peptides without Tyr show the background
quantity_kind: SH2 binding enrichment

Consider the worked cases shown below.
[[record]]
polymer_sequence = "NKYTTYLPWLP [C9orf24_Y126_R129W]"
endpoint_value = 1.14

[[record]]
polymer_sequence = "MEIHAYRKLSE [LMNA_Y376_L380S]"
endpoint_value = 0.718

[[record]]
polymer_sequence = "HRGHLYLAIEF [TEK_Y899_Y897H_YF]"
endpoint_value = 0.645

[[record]]
polymer_sequence = "LDAGEYCVPRG [BEX1_Y43]"
endpoint_value = 0.844

[[record]]
polymer_sequence = "RISRKYKKVRF [F8_Y442_G439S]"
endpoint_value = 0.461

[[record]]
polymer_sequence = "SCPANYFAFKI [FAM3D_Y65_P60S]"
endpoint_value = 1.12

[[record]]
polymer_sequence = "MAQDIYRASFF [ALK_Y1278_R1275Q_YF]"
endpoint_value = 1.04

[[record]]
polymer_sequence = "HELFVYKSDEN [DOCK3_Y548_C550S_YF]"
endpoint_value = 0.973

[[record]]
polymer_sequence = "SSAAGYACLAY [MVD_Y131]"
endpoint_value = 0.721

[[record]]
polymer_sequence = "SVTYTYSPALN [TP53_Y126_C124Y]"
endpoint_value = 0.76


[1] CDIARYIVSQL [MAST2_Y461_P459A]
[2] PLGKDYRKVEG [MAP1A_Y1909_A1912V]
# input For the pair 1 and 2 , which entry has the numerically smaller recorded SH2 binding enrichment? Let me know the label of the one you choose.
# output 2

[a] RKGIRYLTSGL [PIGA_Y82]
[b] ASTHVYQIMNH [ITK_Y588]
# input Which entry has a larger number for SH2 binding enrichment, a or b ? Identify your pick by its label.
# output a

[P] EDDIIYTQDFT [STK11_Y362]
[Q] GHGRFYMKEAI [PGM1_Y66_D62H]
# input Compare reported SH2 binding enrichment values for P and Q . Which is lower? Reply briefly: the label of your chosen item.
# output P

[a] CSHKFYGKQCC [ADAMTS16_Y1211]
[b] MAPQMYEFHLP [NCAPD2_Y6]
# input Hi there! Just curious which has the higher SH2 binding enrichment between a and b . Let me know the label of the one you choose.
# output a
(a: 1.04, b: 0.656)

----------
target: Fes (UniProt P07332); experiment: phosphorylation enrichment, bacterial display (enrichment ratio); higher = better substrate or ligand; peptides without Tyr show the background
quantity_kind: phosphorylation enrichment
The reply should be a number, written without any unit.

A selection of reference data follows.
[[record]]
polymer_sequence = "AGREEYSAMRD [KRAS_Y64_Q61R]"
measured_on = "Fes (UniProt P07332)"
quantity_kind = "phosphorylation enrichment"
endpoint_value = 0.834

[[record]]
polymer_sequence = "AQADIYKADFQ [IKBKG_Y308]"
measured_on = "Fes (UniProt P07332)"
quantity_kind = "phosphorylation enrichment"
endpoint_value = 0.848


# input Please indicate phosphorylation enrichment recorded for FPKARYRWLVL [APTX_Y214_H215R_YF]
# output 0.72

# input // Input: ARMTNYGLPRY [TSPAN12_Y138] . Output its phosphorylation enrichment only.
# output 0.739

# input Consider the sequence QSQQAYQEAFE [YWHAZ_Y149] and give its recorded phosphorylation enrichment.
# output 1.22

# input Please list phosphorylation enrichment recorded for the sequence MAQDIYRASFF [ALK_Y1278_R1275Q_YF]
# output 0.69

# input Look up phosphorylation enrichment of EYHRLYEEYTR [PIK3R1_Y467_D464H] and report it.
# output 0.898

# input Return the recorded phosphorylation enrichment value; entry: ATVRPYRPYII [LRP5_Y1528_A1525V]
# output 0.715

# input Name the recorded phosphorylation enrichment of the sequence listed here: IEEGTYGVVFR [CDK11B_Y449_YF]
# output 1.48

# input Quick one: give measured phosphorylation enrichment for WPLKWYAPECI [ZAP70_Y506]
# output 1.39

----------
biological target: Jak2 (UniProt O60674); test: phosphorylation enrichment, bacterial display (enrichment ratio); higher = better substrate or ligand; peptides without Tyr show the background
Sequence (O60674 whole entry, looked up): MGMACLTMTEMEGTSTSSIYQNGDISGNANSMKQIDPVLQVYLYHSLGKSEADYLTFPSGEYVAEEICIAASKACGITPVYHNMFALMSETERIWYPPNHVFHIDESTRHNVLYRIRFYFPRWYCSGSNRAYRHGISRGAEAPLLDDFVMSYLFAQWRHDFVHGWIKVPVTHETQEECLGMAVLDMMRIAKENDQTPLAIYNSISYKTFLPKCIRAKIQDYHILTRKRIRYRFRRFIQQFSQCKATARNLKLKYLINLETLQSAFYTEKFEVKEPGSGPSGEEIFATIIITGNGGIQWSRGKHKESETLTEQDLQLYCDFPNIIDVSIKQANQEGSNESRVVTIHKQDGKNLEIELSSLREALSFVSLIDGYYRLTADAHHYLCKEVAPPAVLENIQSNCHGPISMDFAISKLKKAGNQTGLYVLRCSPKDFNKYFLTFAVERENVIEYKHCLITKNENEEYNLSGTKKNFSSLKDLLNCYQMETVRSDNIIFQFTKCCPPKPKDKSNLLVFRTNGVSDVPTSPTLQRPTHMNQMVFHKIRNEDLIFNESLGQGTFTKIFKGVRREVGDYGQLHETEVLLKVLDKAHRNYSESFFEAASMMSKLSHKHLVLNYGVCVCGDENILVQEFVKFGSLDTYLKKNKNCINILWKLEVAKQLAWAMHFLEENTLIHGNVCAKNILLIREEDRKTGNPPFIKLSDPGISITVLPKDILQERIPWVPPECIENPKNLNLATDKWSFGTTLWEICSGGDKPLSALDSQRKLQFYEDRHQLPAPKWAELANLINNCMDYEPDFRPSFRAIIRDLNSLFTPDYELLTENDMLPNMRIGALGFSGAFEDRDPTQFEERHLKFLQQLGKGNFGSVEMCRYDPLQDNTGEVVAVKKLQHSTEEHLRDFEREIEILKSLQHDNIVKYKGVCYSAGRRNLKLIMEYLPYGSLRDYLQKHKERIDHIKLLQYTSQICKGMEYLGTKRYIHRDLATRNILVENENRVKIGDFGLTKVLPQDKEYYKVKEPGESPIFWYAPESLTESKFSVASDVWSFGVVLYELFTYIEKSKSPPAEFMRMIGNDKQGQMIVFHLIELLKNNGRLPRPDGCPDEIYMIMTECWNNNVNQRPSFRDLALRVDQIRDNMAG
quantity_kind: phosphorylation enrichment
Could you keep your reply to the number by itself?

[[record]]
polymer_sequence = "YENGEYIVRQG [PRKG1_Y247_I249V]"
quantity_kind = "phosphorylation enrichment"
endpoint_value = 0.784


Alright, here's another sequence for you.
# input Kindly indicate its recorded phosphorylation enrichment. Item: LNEQHYGGLTG [PGAM4_Y92_R90Q]
# output 0.915

----------
molecular target: SHP2-C SH2; test: SH2 binding enrichment of the phosphorylated peptide, bacterial display (enrichment ratio); higher = better substrate or ligand; peptides without Tyr show the background
quantity_kind: SH2 binding enrichment

[[record]]
polymer_sequence = "NTYEKYLGEEY [TF_Y669]"
endpoint_value = 0.722


[I] FRARAYSFRGP [CHGA_Y381_G382S]
[II] SSWPGYVRPLP [HSPB1_Y54]
[III] LNPLIYSLRNK [OR5R1_Y290]
# input Order the records, beginning with the lowest SH2 binding enrichment and ending with the highest. List each label, following the requested order.
# output I, II, III

[I] KTVQDYLKKFF [MMP8_Y36_E38K_YF]
[II] SFHCSYSEIKD [DCLRE1C_Y322_S320C]
# input Kindly identify which of I and II has the larger recorded SH2 binding enrichment value. Refer to your chosen item by its label in the answer.
# output II
(II: 2.29, I: 0.56)

[I] HPFHVYPQPGM [BAG3_Y114]
[II] EATKGYPDDPT [G6PD_Y322_L323P]
[III] TVEDHDYEGGI [TKT_Y563_Y563D]
# input // ascending sort on recorded SH2 binding enrichment Write out the labels following the order that was asked for.
# output II, I, III
(II: 0.538, I: 0.79, III: 1.26)

[I] VPVPGYTKLPE [SPRR3_Y146]
[II] SVTCTYSPALY [TP53_Y126_N131Y]
# input // task: argmin of SH2 binding enrichment over [ I , II ] Answer = label.
# output I

Ref: the supplement of paper PMC10065799
